test system: HuapoAI transgenic mice; assay: Evaluation of triglyceride and cholesterol level in HuapoAI transgenic mice; format: in vivo; settings: Mus musculus, 168 h; human apoAI transgenic mice, 30 mg/kg oral gavage daily for 7 days, FPLC area under the curve, over mice receiving vehicle; read-out: % HDLc Increase
Here, each record is paired with measured change in vivo at 30 mg/kg data.
test readout: change in vivo at 30 mg/kg (%)

# compound, readout units, experimental result
measured = [
    ("Cc1oc(-c2cccs2)nc1CCOc1ccc(CC(C)(Oc2ccc(C(C)(C)C)cc2)C(=O)O)cc1 (centres unmarked) [Example 17]", "%", 119),
    ("Cc1oc(C2CCCCC2)nc1CCOc1ccc(CC(C)(Oc2ccccc2)C(=O)O)cc1 (centres unmarked) [Example 7]", "%", 39),
    ("Cc1ccc(OC(C)(Cc2ccc(OCCc3nc(-c4cccs4)oc3C)cc2)C(=O)O)cc1C (centres unmarked) [Example 36]", "%", 30),
    ("Cc1oc(-c2cccs2)nc1CCOc1ccc(CC(C)(Oc2cccc(C(C)(C)C)c2)C(=O)O)cc1 (centres unmarked) [Example 25]", "%", 8),
    ("Cc1oc(-c2ccccc2)nc1CCOc1ccc(C[C@@](C)(Oc2ccccc2)C(=O)O)cc1 [Example 2]", "%", 25),
    ("Cc1oc(-c2ccccc2)nc1CCOc1ccc(CC(C)(Oc2ccc3c(c2)OCO3)C(=O)O)cc1 (centres unmarked) [Example 78]", "%", 95),
    ("Cc1ccc(OC(C)(Cc2ccc(OCCc3nc(-c4cccs4)oc3C)cc2)C(=O)O)cc1 (centres unmarked) [Example 40]", "%", 131),
    ("Cc1oc(-c2cccs2)nc1CCOc1ccc(CC(C)(Oc2ccccc2F)C(=O)O)cc1 (centres unmarked) [Example 27]", "%", 49),
    ("Cc1oc(CCc2ccccc2)nc1CCOc1ccc(C[C@](C)(Oc2ccccc2)C(=O)O)cc1 [Example 86]", "%", 36),
    ("Cc1oc(C2(C)CCCCC2)nc1CCOc1ccc(C[C@](C)(Oc2ccc(F)cc2)C(=O)O)cc1 [Example 67]", "%", 76),
    ("Cc1oc(-c2ccccc2)nc1CCOc1ccc(CC(C)(Oc2ccc(Cl)cc2)C(=O)O)cc1 (centres unmarked) [Example 29]", "%", 78),
    ("Cc1oc(-c2cccs2)nc1CCOc1ccc(C[C@@](C)(Oc2ccccc2)C(=O)O)cc1 [Example 5]", "%", 30),
    ("Cc1oc(-c2ccccc2)nc1CCOc1ccc(CC(C)(Oc2ccccc2)C(=O)O)cc1 (racemic) [Example 1]", "%", 83),
    ("Cc1oc(-c2cccs2)nc1CCOc1ccc(CC(C)(Oc2ccc(C(F)(F)F)cc2)C(=O)O)cc1 (centres unmarked) [Example 51]", "%", 122),
    ("Cc1cccc(OC(C)(Cc2ccc(OCCc3nc(-c4cccs4)oc3C)cc2)C(=O)O)c1 (centres unmarked) [Example 61]", "%", 72),
    ("Cc1oc(C2CCCCC2)nc1CCOc1ccc(CC(C)(Oc2ccc(C(F)(F)F)cc2)C(=O)O)cc1 (centres unmarked) [Example 52]", "%", 185),
    ("Cc1oc(C2(C)CCCCC2)nc1CCOc1ccc(CC(C)(Oc2ccccc2)C(=O)O)cc1 (centres unmarked) [Example 9]", "%", 123),
    ("Cc1oc(-c2ccccc2)nc1CCOc1ccc(C[C@](C)(Oc2ccccc2)C(=O)O)cc1 [Example 3]", "%", 67),
    ("Cc1oc(C2CCCCC2)nc1CCOc1ccc(CC(C)(Oc2ccc3c(c2)OCO3)C(=O)O)cc1 (centres unmarked) [Example 80]", "%", 123),
    ("Cc1oc(C2CCCCC2)nc1CCOc1ccc(CC(C)(Oc2ccc(F)cc2)C(=O)O)cc1 (centres unmarked) [Example 65]", "%", 75),
    ("CCC(Cc1ccc(OCCc2nc(C3(C)CCCCC3)oc2C)cc1)(Oc1ccccc1)C(=O)O (centres unmarked) [Example 49]", "%", 17),
    ("Cc1oc(-c2ccccc2)nc1CCCc1ccc(CC(C)(Oc2ccccc2)C(=O)O)s1 (centres unmarked) [Example 91]", "%", 46),
    ("Cc1oc(-c2cccs2)nc1CCOc1ccc(CC(C)(Oc2cccc(C(F)(F)F)c2)C(=O)O)cc1 (centres unmarked) [Example 71]", "%", 34),
    ("Cc1ccc(OC(C)(Cc2ccc(OCCc3nc(C4CCCCC4)oc3C)cc2)C(=O)O)cc1C (centres unmarked) [Example 35]", "%", 77),
    ("Cc1oc(-c2cccc(Br)c2)nc1CCOc1ccc(CC(C)(Oc2ccccc2)C(=O)O)cc1 (centres unmarked) [Example 8]", "%", 34),
    ("Cc1oc(C2CCCCC2)nc1CCOc1ccc(CC(C)(Oc2ccc(Cl)cc2)C(=O)O)cc1 (centres unmarked) [Example 31]", "%", 114),
    ("Cc1oc(C2CCCCC2)nc1CCOc1ccc(CC(C)(Oc2ccc(F)c(F)c2)C(=O)O)cc1 (centres unmarked) [Example 58]", "%", 74),
    ("COc1cccc(OC(C)(Cc2ccc(OCCc3nc(C4CCCCC4)oc3C)cc2)C(=O)O)c1 (centres unmarked) [Example 76]", "%", 26),
    ("Cc1oc(C2CCCCC2)nc1CCOc1ccc(CC(C)(Oc2cccc(F)c2)C(=O)O)cc1 (centres unmarked) [Example 23]", "%", 54),
    ("Cc1oc(-c2cccs2)nc1CCOc1ccc(CC(C)(Oc2cccc(F)c2)C(=O)O)cc1 (centres unmarked) [Example 22]", "%", 29),
    ("Cc1oc(C2CCCCC2)nc1CCOc1ccc(CC(C)(Oc2ccc(OC(F)(F)F)cc2)C(=O)O)cc1 (centres unmarked) [Example 44]", "%", 151),
    ("Cc1oc(-c2cccs2)nc1CCOc1ccc(CC(C)(Oc2ccc(F)cc2)C(=O)O)cc1 (centres unmarked) [Example 64]", "%", 66),
]

Value source: patent US7345070B2
